List of IC50 values.
System: Abeta 1-42
Experiment: Cellular αLisa assay in SKNBE2 cells, Abeta 1-42
Assay type: cell-based, human
Details: Homo sapiens, SKNBE2, 18 h, incubated for 18 hours, read-out: Cellular αLisa assay in SKNBE2 cells Abeta 42 pIC50 (converted)
Provide only the numeric value, understood in nM.

Here is how some compounds turned out for IC50.
{"COMPOUND": "CC1(c2cc(-c3cncnc3)c(F)cc2F)N=C(N)COC1F (single isomer, unassigned) [Compound 81]", "UNIT SYMBOL": "nM", "MEASUREMENT": 1230}
{"COMPOUND": "C[C@]1(c2cc(-c3cncc(Cl)c3)c(F)cc2F)N=C(N)CO[C@H]1C(F)(F)F", "UNIT SYMBOL": "nM", "MEASUREMENT": 398}
{"COMPOUND": "C[C@]1(c2cccc(NC(=O)c3ncc(Cl)cc3Cl)c2)N=C(N)CO[C@]1(F)C(F)(F)F", "UNIT SYMBOL": "nM", "MEASUREMENT": 12.3}
{"COMPOUND": "C[C@]1(c2cc(NC(=O)c3ccncn3)ccc2F)N=C(N)CO[C@H]1C(F)(F)F", "UNIT SYMBOL": "nM", "MEASUREMENT": 79.4}
{"COMPOUND": "C[C@]1(c2cc(-c3cncnc3)c(F)cc2F)N=C(N)CO[C@@]1(F)C(F)(F)F", "UNIT SYMBOL": "nM", "MEASUREMENT": 2190}
{"COMPOUND": "C[C@]1(c2cccc(NC(=O)c3ncc(C#N)cc3Cl)c2)N=C(N)CO[C@]1(F)C(F)(F)F", "UNIT SYMBOL": "nM", "MEASUREMENT": 6.61}
{"COMPOUND": "NC1=N[C@@](c2cccc(-c3cncnc3)c2)(C2CC2)[C@H](C(F)(F)F)OC1", "UNIT SYMBOL": "nM", "MEASUREMENT": 58.9}
{"COMPOUND": "C[C@]1(c2cc(-c3cncc(C#N)c3)c(F)cc2F)N=C(N)CO[C@@H]1C(F)(F)F", "UNIT SYMBOL": "nM", "MEASUREMENT": 550}

Query :: Reported IC50 for CC1(c2cc(NC(=O)c3ccc(C#N)cn3)ccc2F)N=C(N)COC1F (stereo not drawn) : what is it?
Result :: 11

Query :: // lookup IC50 for COc1cnc(C(=O)Nc2ccc(F)c([C@@]3(C4CC4)N=C(N)CO[C@H]3F)c2)cn1
Result :: 525

Query :: So what does the record say about IC50 for N#Cc1ccc(C(=O)Nc2cccc([C@@]3(C4CC4)N=C(N)CO[C@H]3C(F)(F)F)c2)nc1 ?
Result :: 6.31

Query :: Please look up its IC50: NC1=N[C@@](c2cc(-c3cncc(Cl)c3)ccc2F)(C2CC2)[C@H](F)OC1
Result :: 8130

Query :: Using the record for COc1cnc(C(=O)Nc2ccc(F)c(C3(C)N=C(N)COC3F)c2)cn1 (single isomer, unassigned) [Compound 129] , report its IC50.
Result :: 5250

Query :: Field request: IC50 | item: C[C@]1(c2cc(NC(=O)c3ccc(Cl)cn3)ccc2F)N=C(N)CO[C@@]1(F)C(F)(F)F (single isomer, unassigned)
Result :: 22.9

Query :: So what's the measured IC50 for this one? CC1(c2cc(-c3cncnc3)ccc2F)N=C(N)COC1(F)C(F)(F)F (single isomer, unassigned)
Result :: 437
